# tested_target: Fuc(a1-2)[GalNAc(a1-3)]Gal(b1-3)GlcNAc(b1-6)GalNAc
# assay_name: glycan array binding signal (z-score within array); higher = stronger binding
# setup_conditions: glycan notation: IUPAC condensed, linker removed
The sample as a whole holds a higher share of the strongest signals than the screen did.
Recorded glycan array binding signal (z-score) by entry
Please reply with the number alone, leaving off any unit.

INSERT INTO measurements (binder, readout_type, observed_measurement) VALUES
  ('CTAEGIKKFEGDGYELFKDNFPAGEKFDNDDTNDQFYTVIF [MUB40 (Lactobacillus reuteri)]', 'glycan array binding signal (z-score)', -0.425);

Now turn to the next binder.
Record rMpL (Macrolepiota procera) (protein) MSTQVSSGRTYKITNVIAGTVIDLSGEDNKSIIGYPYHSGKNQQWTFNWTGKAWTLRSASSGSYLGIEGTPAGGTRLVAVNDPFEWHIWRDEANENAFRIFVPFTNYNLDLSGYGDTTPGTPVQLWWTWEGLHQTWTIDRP , field glycan array binding signal (z-score): -0.353
